# credit: ChEMBL document CHEMBL1201862

Endpoint: log10 of GI50. System: HCT-15. Items follow.
For clarity, the numbers are log10 values of GI50 expressed in µM.

log10 of GI50 in this record for C=C(C[N+](C)(C)C)N/N=C/c1oc(-c2ccc(OC)c(OC)c2)c(-c2ccc(OC)c(OC)c2)c1[N+](=O)[O-] : 1.25

log10 of GI50 in this record for Cc1nc(N)nc(N)c1N1CCN(Cc2ccccc2)CC1 : 0.97

log10 of GI50 in this record for Cc1c(-c2nc(N)c(C#N)c(N)c2C#N)c(=O)oc2ccccc12 : 1.91

log10 of GI50 in this record for Cc1noc(/N=C2\C=C(O)C(=O)c3ccccc32)c1C : 1.06

log10 of GI50 in this record for Cc1cc(O)c(C(O)c2ccccn2)cc1O (centres undefined) : 1.26

log10 of GI50 in this record for CC[C@@]1(O)C(=O)OCc2c1cc1n(c2=O)Cc2c-1nc1ccccc1c2Cl : -0.57

log10 of GI50 in this record for CC(=O)NC1=C(NC(C)(C)C)C(=O)c2ccccc2C1=O : 1.24

log10 of GI50 in this record for O=c1c(Cc2ccccc2)c(-c2ccccc2)[nH]n1C1=NCCN1 : 0.89

====

- System: MDA-MB-435
- experiment description: NCI tumour cell line growth inhibition, 48 h
The source made the active and inactive calls. Rule as the data show it: active = GI50 up to about 1.1 µM and inactive = higher. Residues, ends and D or L forms follow the SMILES beside them. *: point of attachment. Boc = CC(C)(C)OC(=O)*
// values below are reported GI50

Some compounds with known GI50 results, for comparison:
[
  {
    "compound": "O=C(NC1=C(Cl)C(=O)c2ccccc2C1=O)C(=O)c1c(O)c2ccccc2oc1=O",
    "system under test": "MDA-MB-435",
    "result": "1.39 µM (inactive)"
  },
  {
    "compound": "CC(O)c1c2c(cc3c1CC1(C3)Cc3cc4c(c(C(C)O)c3C1)CCC4)CCC2 (centres undefined)",
    "system under test": "MDA-MB-435",
    "result": "15.8 µM (inactive)"
  }
]

GI50 in this record for CCOC(=O)C1(Cc2ccc(C)cc2)Cc2ccc(C)cc2C1=O (centres undefined) : 2.81 µM (inactive)

GI50 in this record for COc1c(Cl)nc2ccccc2c1N=[N+]=[N-] : > 100 µM (inactive)

GI50 in this record for O=C(Nc1cc2c(=O)oc3ccccc3c2oc1=O)c1cccnc1 : > 100 µM (inactive)

GI50 in this record for CCOC(=O)n1c2ccccc2c2c(O)c(OC)c3c(c21)C(=O)NC3=O : 60 µM (inactive)

GI50 in this record for CC(=O)O[C@H]1CN(S(=O)(=O)c2ccc(C)cc2)C[C@@H]1C1CCCCC1 : 27.9 µM (inactive)

GI50 in this record for COc1ccc(NC(C)=O)cc1N1C(=O)/C(=C\c2cccc(Oc3ccccc3)c2)SC1c1ccccc1 (centres undefined) : 23.3 µM (inactive)

GI50 in this record for COC(=O)C(Cc1c[nH]c2ccccc12)NC(=O)C(Cc1c[nH]c2ccccc12)NC(=O)C(Cc1c[nH]c2ccccc12)NC(=O)C(Cc1c[nH]c2ccccc12)NC(=O)OC(C)(C)C (centres undefined) (Boc-WWWW-OMe; configuration not given here) : 23.4 µM (inactive)
